Tested on: 4 PI3K isoforms (Human recombinant GST-PI3K)
Assay: PI3K scintillation proximity assay, best IC50 obtained with the four isoforms (alpha, beta, delta, gamma)
Assay type: biochemical
Details: best IC50 obtained with the four isoforms of PI3K; read-out: Best potency measured on the 4 PI3K isoforms
pIC50: −log10 of the molar value. Structures can show the parent of a compound that is named as a salt.
ENDPOINT_NAME: pIC50

Answered cases to consult:
{"COMPOUND": "O=C(c1nn([C@H]2CCCN(CCN3CC(F)(F)C3)C2)c2c1CS(=O)(=O)c1c(F)cccc1-2)N1CCOCC1 (stereo in doubt)", "QUANTITATIVE_RESULT": 7.66}
{"COMPOUND": "O=C(c1nn([C@H]2CCN(C3CCOCC3)C2)c2c1CS(=O)(=O)c1c(F)cccc1-2)N1CCOCC1 (single isomer, unassigned) [Example 355, hydrochloride salt]", "QUANTITATIVE_RESULT": 7.28}
{"COMPOUND": "O=C(c1nn(CC2CCCCC2)c2c1CS(=O)(=O)c1ccccc1-2)N1CCOCC1", "QUANTITATIVE_RESULT": 6.29}
{"COMPOUND": "COCc1ccc(-n2nc(C(=O)N3CCOCC3)c3c2-c2ccccc2S(=O)(=O)C3)cc1", "QUANTITATIVE_RESULT": 6.18}

P. O=C(c1nn(-c2ccccc2)c2c1CS(=O)(=O)c1c(F)cccc1-2)N1CCOCC1
Q. O=C(c1nn(-c2ccccc2F)c2c1CS(=O)(=O)c1ccccc1-2)N1CCOCC1
R. Cn1nc(C(=O)N2CCOCC2)c2c1-c1ccccc1S(=O)(=O)C2Cc1ccccc1 (stereo not shown)
Query block: In this exercise, place the 3 compounds in ascending sequence of their recorded pIC50. # format: label list in the order the request specifies
Result block: R, Q, P
(R: 5.28, Q: 5.70, P: 6.37)

###

Tested on: 4 PI3K isoforms (Human recombinant GST-PI3K)
Assay: PI3K scintillation proximity assay, best IC50 obtained with the four isoforms (alpha, beta, delta, gamma)
Type: biochemical
Conditions: best IC50 obtained with the four isoforms of PI3K; read-out: Best potency measured on the 4 PI3K isoforms
pIC50: −log10 of the molar value.
ENDPOINT_NAME: pIC50

// below: answered compounds
{"COMPOUND": "O=C(c1nn(C2CCN(CCC3CCOCC3)C2)c2c1CS(=O)(=O)c1c(F)cccc1-2)N1CCOCC1 (stereo not shown)", "ENDPOINT_NAME": "pIC50", "QUANTITATIVE_RESULT": 7.68}
{"COMPOUND": "COc1cccc2c1S(=O)(=O)Cc1c(C(=O)N3CCOCC3)nn(-c3ccccc3)c1-2", "ENDPOINT_NAME": "pIC50", "QUANTITATIVE_RESULT": 6.34}
{"COMPOUND": "O=C(c1nn(CCO)c2c1CS(=O)(=O)c1ccccc1-2)N1CCOCC1", "ENDPOINT_NAME": "pIC50", "QUANTITATIVE_RESULT": 6.18}
{"COMPOUND": "Cn1cc(-c2cccc(-n3nc(C(=O)N4CCOCC4)c4c3-c3ccccc3S(=O)(=O)C4)c2)cn1", "ENDPOINT_NAME": "pIC50", "QUANTITATIVE_RESULT": 6.74}
{"COMPOUND": "O=C(CC1CCCCC1)N1CCC[C@H](n2nc(C(=O)N3CCOCC3)c3c2-c2ccccc2S(=O)(=O)C3)C1", "ENDPOINT_NAME": "pIC50", "QUANTITATIVE_RESULT": 6.13}

P. O=C(c1nn(-c2ccccc2)c2c1CS(=O)(=O)c1ccc(Br)cc1-2)N1CCOCC1
Q. O=C(c1nn(C2CN(CCN3CCOCC3)C2)c2c1CS(=O)(=O)c1ccccc1-2)N1CCOCC1
Query block: Hi, I'm comparing two records. Which one has the lower pIC50, P or Q ? The response must carry the label of the picked entry.
Result block: P
(P: 5.89, Q: 6.63)

A. O=C(c1nn(C2CCCCC2)c2c1CS(=O)(=O)c1ncccc1-2)N1CCOCC1
B. O=C(c1nn(-c2cccc(OCCn3ccnc3)c2)c2c1CS(=O)(=O)c1ccccc1-2)N1CCOCC1
C. CC(C)(C)OC(=O)N1CCCC(n2nc(C(=O)N3CCOCC3)c3c2-c2ccccc2S(=O)(=O)C3)C1 (stereo not shown)
Query block: Provide the items ranked by increasing pIC50. Reply format: the labels, ordered as requested.
Result block: C, A, B

###

Tested on: 4 PI3K isoforms (Human recombinant GST-PI3K)
Test: PI3K scintillation proximity assay, best IC50 obtained with the four isoforms (alpha, beta, delta, gamma)
Assay type: biochemical
Conditions: best IC50 obtained with the four isoforms of PI3K; read-out: Best potency measured on the 4 PI3K isoforms
ENDPOINT_NAME: IC50 (nM)

{"COMPOUND": "O=C(c1nn([C@H]2CCCN(CCN3CC[C@@H](F)C3)C2)c2c1CS(=O)(=O)c1ccccc1-2)N1CCOCC1 (single isomer, unassigned) [Example 364]", "IC50 [nM]": 14}
{"COMPOUND": "O=C(c1nn(-c2ccccc2Br)c2c1CS(=O)(=O)c1ccccc1-2)N1CCOCC1 [Example 20]", "IC50 [nM]": 5500}
{"COMPOUND": "O=C(c1nn([C@H]2CCCN(c3ccncc3)C2)c2c1CS(=O)(=O)c1ccccc1-2)N1CCOCC1 (stereo in doubt) [Example 468]", "IC50 [nM]": 133}
{"COMPOUND": "CN1CCN(Cc2ccc(-n3nc(C(=O)N4CCOCC4)c4c3-c3ccccc3S(=O)(=O)C4)cn2)CC1 [Example 252]", "IC50 [nM]": 335}
{"COMPOUND": "CC(=O)OCCN1CCC(n2nc(C(=O)N3CCOCC3)c3c2-c2ccccc2S(=O)(=O)C3)C1 (stereo not shown) [Example 299]", "IC50 [nM]": 871}

A. O=C(c1nn([C@H]2CCCNC2)c2c1CS(=O)(=O)c1ccccc1-2)N1CCOCC1 (single isomer, unassigned) [Example 359]
B. O=C(c1nn([C@H]2CCCN(CCn3ccnc3)C2)c2c1CS(=O)(=O)c1ccccc1-2)N1CCOCC1 (single isomer, unassigned) [Example 412]
Query block: Which gives the smaller IC50 number: A or B ? Provide the label of your selected option as the answer.
Result block: A

###

Tested on: 4 PI3K isoforms (Human recombinant GST-PI3K)
Assay: PI3K scintillation proximity assay, best IC50 obtained with the four isoforms (alpha, beta, delta, gamma)
Format: biochemical
Conditions: best IC50 obtained with the four isoforms of PI3K; read-out: Best potency measured on the 4 PI3K isoforms
ENDPOINT_NAME: IC50 (nM)

Record excerpt, results attached:
{"COMPOUND": "CN1CCCC(Cn2nc(C(=O)N3CCOCC3)c3c2-c2ccccc2S(=O)(=O)C3)C1 (stereo not shown) [Example 70]", "TGT": "4 PI3K isoforms (Human recombinant GST-PI3K)", "IC50, nM": 6050}
{"COMPOUND": "O=C(c1nn([C@H]2CCCN(CCN3CCCCC3)C2)c2c1CS(=O)(=O)c1ccccc1-2)N1CCOCC1 (stereo in doubt) [Example 465]", "TGT": "4 PI3K isoforms (Human recombinant GST-PI3K)", "IC50, nM": 15}
{"COMPOUND": "Cc1nc(CN2CCCC(n3nc(C(=O)N4CCOCC4)c4c3-c3ccccc3S(=O)(=O)C4)C2)no1 (stereo not shown) [Example 295]", "TGT": "4 PI3K isoforms (Human recombinant GST-PI3K)", "IC50, nM": 134}
{"COMPOUND": "O=C(c1nn([C@@H]2CCCN(C3CCCOC3)C2)c2c1CS(=O)(=O)c1ncccc1-2)N1CCOCC1 (single isomer, unassigned) [Example 379]", "TGT": "4 PI3K isoforms (Human recombinant GST-PI3K)", "IC50, nM": 2930}
{"COMPOUND": "COCCCC1c2c(C(=O)N3CCOCC3)nn(-c3ccccc3)c2-c2ccccc2S1(=O)=O (stereo not shown) [Example 112]", "TGT": "4 PI3K isoforms (Human recombinant GST-PI3K)", "IC50, nM": 5070}

P. COc1ccc(C(=O)Cn2nc(C(=O)N3CCOCC3)c3c2-c2ccccc2S(=O)(=O)C3)cc1 [Example 317]
Q. O=C(c1nn(-c2cccc(CN3CCC(F)CC3)c2)c2c1CS(=O)(=O)c1ccccc1-2)N1CCOCC1 [Example 242]
Query block: # return whichever of P and Q has the smaller IC50 Please identify the chosen entry by its label.
Result block: Q

###

Test system: 4 PI3K isoforms (Human recombinant GST-PI3K)
Experiment: PI3K scintillation proximity assay, best IC50 obtained with the four isoforms (alpha, beta, delta, gamma)
Assay type: biochemical
Conditions: best IC50 obtained with the four isoforms of PI3K; read-out: Best potency measured on the 4 PI3K isoforms
pIC50: −log10 of the molar value. Counter-ions that a name gives are not always drawn.
ENDPOINT_NAME: pIC50

Solved cases below.
{"COMPOUND": "COCc1cccc(-n2nc(C(=O)N3CCOCC3)c3c2-c2ccccc2S(=O)(=O)C3)c1 [Example 248]", "pIC50": 6.00}
{"COMPOUND": "CC(C)Cn1nc(C(=O)N2CCOCC2)c2c1-c1ccccc1S(=O)(=O)C2 [Example 50]", "pIC50": 6.02}

A. CN(C)CC(C)(C)c1ccc(-n2nc(C(=O)N3CCOCC3)c3c2-c2ccccc2S(=O)(=O)C3)cc1 [Example 458, hydrochloride]
B. O=C(c1nn(C2CCCN(CCCn3cccc3)C2)c2c1CS(=O)(=O)c1ccccc1-2)N1CCOCC1 (centres unmarked) [Example 296]
Query block: Determine, for A and B , which has the greater value of pIC50. Please reply using the label of the selected record.
Result block: B

A. O=C(c1nn(-c2cccc(CN3CCCC3)c2)c2c1CS(=O)(=O)c1ccccc1-2)N1CCOCC1 [Example 245]
B. COC1CCN(C(=O)c2cccc(-n3nc(C(=O)N4CCOCC4)c4c3-c3ccccc3S(=O)(=O)C4)c2)CC1 [Example 142]
C. O=C(c1nn(C2CCCN(CCC3CCOCC3)C2)c2c1CS(=O)(=O)c1ccccc1-2)N1CCOCC1 (centres unmarked) [Example 224]
Query block: Could you please order the items by pIC50, going from the lowest number to the highest? Give the order by naming the labels one after another as requested.
Result block: A, B, C
(A: 6.29, B: 6.52, C: 7.27)
